Target Under Test: endothelin receptors (human placenta membranes)
Test Protocol: Inhibition of endothelin binding to human placenta membranes (125I-endothelin)
Condition Parameters: 125I-endothelin 20 pM, 20° C. for 2 hours or 4° C. for 24 hours, read-out: IC50 (concentration required to inhibit 50% of the specific binding of 125I-endothelin)
Overview of recorded IC50 for various compounds
Quick reminder: number only, in nM, skip the unit.

Some compounds with recorded IC50:
COc1ccc(Cl)c(Oc2c(COCC(O)CO)nc(N3CCOCC3)nc2NS(=O)(=O)c2ccc(C(C)(C)C)cc2)c1 (racemic) = 182
COc1ccc(Cl)c(Oc2c(COCCO)nc(N3CCOCC3)nc2NS(=O)(=O)c2ccc(C(C)(C)C)cc2)c1 = 35
COc1ccc(Cl)c(Oc2c(COCCO)ncnc2NS(=O)(=O)c2ccc(C(C)(C)C)cc2)c1 = 184

From here, focus on the item given below.
Query: Indicate the recorded IC50 value for this compound: COc1ccc(Cl)c(Oc2c(CO)nc(N3CCOCC3)nc2NS(=O)(=O)c2ccc(C(C)(C)C)cc2)c1
Reply: 130
